# Test system: endogenous target monocytes in human PBMC
# MEASUREMENT_NOTES: PBMC ex vivo monocyte depletion flow cytometry assay (Example 200)
# Assay type: cell-based
# CONDITION_INFO: with anti-cotinine antibody (SEQ ID NO: 11/12), 18-24 hours, EC50 in molar, read-out: Ex Vivo Depletion Assay pEC50 (converted)
PROPERTY_LABEL: EC50 (nM)
Value expressed in nM; do not type the unit.

QUERY_SMILES	UNIT_OF_MEASUREMENT	EC50
CC(C)N(C)[C@@H]1CC[C@H](N2CC[C@H](Nc3ncnc4ccc(C(F)(F)F)cc34)C2=O)[C@H](NC(=O)[C@H]2CC[C@@H](NC(=O)CCOCCOCCNC(=O)CCCNC(=O)[C@H]3CC(=O)N(C)[C@@H]3c3cccnc3)CC2)C1	nM	0.316
CC(C)N(C)[C@@H]1CC[C@H](N2CC[C@H](Nc3ncnc4ccc(C(F)(F)F)cc34)C2=O)[C@H](NC(=O)C2CCN(C3CCN(C4CCN(CCCCNC(=O)[C@H]5CC(=O)N(C)[C@@H]5c5cccnc5)CC4)CC3)CC2)C1	nM	0.0631

Enquiry: Tell me reported EC50 for CC(C)N(C)[C@@H]1CC[C@H](N2CC[C@H](Nc3ncnc4ccc(C(F)(F)F)cc34)C2=O)[C@H](NC(=O)[C@H]2CC[C@@H](NC(=O)CCCC(=O)NCCCOCCCNC(=O)[C@H]3CC(=O)N(C)[C@@H]3c3cccnc3)CC2)C1 , tested with endogenous target monocytes in human PBMC.
Return: 0.501

Enquiry: GET /values?readout=EC50&system=endogenous target monocytes in human PBMC&item= CC(C)N(C)[C@@H]1CC[C@H](N2CC[C@H](Nc3ncnc4ccc(C(F)(F)F)cc34)C2=O)[C@H](NC(=O)[C@H]2C[C@@H](NC(=O)CCOCCOCCOCCNC(=O)[C@H]3CC(=O)N(C)[C@@H]3c3cccnc3)C2)C1
Return: 1.26

Enquiry: Request - read-out EC50 | tested on endogenous target monocytes in human PBMC | compound CC(C)N(C)[C@@H]1CC[C@H](N2CC[C@H](Nc3ncnc4ccc(C(F)(F)F)cc34)C2=O)[C@H](NC(=O)[C@H]2CC[C@H](NC(=O)CCO[C@H]3CC[C@H](OCCNC(=O)[C@H]4CC(=O)N(C)[C@@H]4c4cccnc4)CC3)CC2)C1
Return: 3.16

###

# TESTED_TARGET: anti-cotinine antibody (SEQ ID NO: 11/12, rabbit variable region with human IgG1 Fc DE mutation)
# MEASUREMENT_NOTES: SPR binding of anti-cotinine antibody to ARM compounds, Biacore T200, 37° C. (Example 202)
# CONDITION_INFO: SPR Biacore T200, 37° C., pH 7.4, antibody SEQ ID NO: 11/12 captured on protein A; Kd in molar
PROPERTY_LABEL: pKd of Antibody for ARM Compound of Formula (I)
Kindly provide the number alone.

COMPOUND	DATA_VALUE
CC(C)N(C)[C@@H]1CC[C@H](N2CC[C@H](Nc3ncnc4ccc(C(F)(F)F)cc34)C2=O)[C@H](NC(=O)[C@H]2CC[C@@H](NC(=O)CCOCCOCCOCCNC(=O)[C@H]3CC(=O)N(C)[C@@H]3c3cccnc3)CC2)C1	9.273
CC(C)N(C)[C@@H]1CC[C@H](N2CC[C@H](Nc3ncnc4ccc(C(F)(F)F)cc34)C2=O)[C@H](NC(=O)CCOCCNC(=O)COCCNC(=O)CCOCCNC(=O)[C@H]2CC(=O)N(C)[C@@H]2c2cccnc2)C1	9.07
CC(C)N(C)[C@@H]1CC[C@H](N2CC[C@H](Nc3ncnc4ccc(C(F)(F)F)cc34)C2=O)[C@H](NC(=O)CCOCCOCCNC(=O)COCCNC(=O)CCNC(=O)[C@H]2CC(=O)N(C)[C@@H]2c2cccnc2)C1	9.103
CN1C(=O)C[C@H](C(=O)NCC(=O)NCCOCCOCCC(=O)N[C@H]2CC[C@@H](C(=O)N[C@@H]3C[C@H](NC(C)(C)C)CC[C@@H]3N3CC[C@H](Nc4ncnc5ccc(C(F)(F)F)cc45)C3=O)CC2)[C@H]1c1cccnc1	8.648
CN1C(=O)C[C@H](C(=O)NCCCOCCCNC(=O)CCCC(=O)NC2CCC(C(=O)N[C@@H]3C[C@H](NC(C)(C)C)CC[C@@H]3N3CC[C@H](Nc4ncnc5ccc(C(F)(F)F)cc45)C3=O)CC2)[C@H]1c1cccnc1 (stereo partly drawn)	9.2495
CC(C)N(C)[C@@H]1CC[C@H](N2CC[C@H](Nc3ncnc4ccc(C(F)(F)F)cc34)C2=O)[C@H](NC(=O)[C@H]2CC[C@H](C3CCN(C(=O)CCOCCOCCNC(=O)[C@H]4CC(=O)N(C)[C@@H]4c4cccnc4)CC3)CC2)C1	9.8185
CC(C)N(C)[C@@H]1CC[C@H](N2CC[C@H](Nc3ncnc4ccc(C(F)(F)F)cc34)C2=O)[C@H](NC(=O)[C@H]2CC[C@@H](C3CCN(C(=O)CCOCCOCCNC(=O)[C@H]4CC(=O)N(C)[C@@H]4c4cccnc4)CC3)CC2)C1	9.8865
CCN1C(=O)C[C@H](C(=O)NCCOCCOCCOCCC(=O)N[C@H]2CC[C@@H](C(=O)N[C@@H]3C[C@H](N(C)C(C)C)CC[C@@H]3N3CC[C@H](Nc4ncnc5ccc(C(F)(F)F)cc45)C3=O)CC2)[C@H]1c1cccnc1	9.933

Okay, now this compound:
Enquiry: # lookup: pKd of Antibody for ARM Compound of Formula (I) of CC(C)N(C)[C@@H]1CC[C@H](N2CC[C@H](Nc3ncnc4ccc(C(F)(F)F)cc34)C2=O)[C@H](NC(=O)COCCOCCNC(=O)COCCNC(=O)CCNC(=O)[C@H]2CC(=O)N(C)[C@@H]2c2cccnc2)C1
Return: 9.091
